- Tested on: Acinetobacter baumannii
- Measurement Notes: Antibacterial activity against Acinetobacter baumannii CLB21655 incubated for 18 to 20 hrs in presence of 50% human serum by microbroth dilution method
- Format: functional
- Condition Parameters: time 18-20 hrs
Assay Endpoint: MIC (µM)

Look over these answered cases.
Compound	Assay Endpoint	Assay Result
O=C(O)c1cc(CN2CC(Oc3ccc(NS(=O)(=O)N4CCOC(c5ccc(F)cc5)C4)c(C(=O)O)c3)C2)ccc1NS(=O)(=O)CCCCc1ccc(Cl)cc1 (single isomer, unassigned)	MIC	12.5
O=C(O)c1cc(CN2CC(Oc3ccc(NS(=O)(=O)c4cnn(-c5ccc(F)cc5)c4)c(C(=O)O)c3)C2)ccc1NS(=O)(=O)CCCCc1ccc(Cl)cc1	MIC	29.7

(A) O=C(O)c1cc(CN2CC(Oc3ccc(NS(=O)(=O)c4cnn(-c5ccc(F)cc5)c4)c(C(=O)O)c3)C2)ccc1NS(=O)(=O)CCCCCc1ccc(Cl)cc1
(B) O=C(O)c1cc(CN2CC(Oc3ccc(NS(=O)(=O)N4CCOC(c5ccc(F)cc5)C4)c(C(=O)O)c3)C2)ccc1NS(=O)(=O)CCCc1ccc(F)cc1 (racemic)
Problem: Lowest MIC? choose A or B Write the label of whichever entry you select.
Solution: B
(B: 12.5 µM, A: 25 µM)

Where do these numbers come from? They come from ChEMBL document CHEMBL5584343.
